IC50 values for SIK3 (Homo sapiens), compiled from several publications.

COc1cc(-c2cnc3cc(OCC4CN(C)C4)ccn23)cc2c1C(=O)N(CC(F)(F)F)CC2: 0.01 to 10 nM
CCOCCn1cc(-c2cc(C#N)c3c(-c4cc(OC)c5c(c4)C(C)(C)CNC5=O)n(C)nc3c2)cn1: 14.4 nM
Cc1nc(Nc2cnc3[nH]cc(-c4cccc(F)c4Cl)c3c2)sc1Cl: > 1000 nM

Continue with the compound presented below.
Qu. Lab request: please report IC50 under test system SIK3 (Homo sapiens) for `Oc1c(F)cccc1-c1c[nH]c2ncc(-c3ccc(CN4CCOCC4)s3)cc12`
Ans. > 100 nM
